Cited source: the supplement of paper PMC11061612

Would you mind telling me the reported Bliss excess of each entry?
- Tested on: OVCAR-5 (Ovarian Carcinoma)
- TEST: Bliss excess, mean over the matrix (fraction); higher = more synergy
Give bare numbers.

Field: example entries. Status: answers known.
COMPOUND	Bliss excess
C[C@@H](Nc1cc(F)cc(F)c1)c1cc(C(=O)N(C)C)cc2c(=O)cc(N3CCOCC3)oc12 [AZD8186] + C1CN(CCC1(C(=O)N[C@@H](CCO)C2=CC=C(C=C2)Cl)N)C3=NC=NC4=C3C=CN4 [AZD5363] (first compound max 10 µM, 7x7, partner max 10 µM)	-0.0442
COc1cc2ncnc(Nc3ccc(F)c(Cl)c3)c2cc1OCCCN1CCOCC1 [Gefitinib] + CC(C)n1c(=O)n(C)c2cnc3cc(F)c(-c4ccc(OCCCN5CCCCC5)nc4)cc3c21 [AZD1390] (first compound max 10 µM, 7x7, partner max 0.3 µM)	-0.0846
N#Cc1cnc(Nc2cc(NC[C@H]3CNCCO3)c(C(F)(F)F)cn2)cn1 [SRA737] + Nc1ccn([C@@H]2O[C@H](CO)[C@@H](O)C2(F)F)c(=O)n1 [Gemcitabine] (first compound max 10 µM, 7x7, partner max 0.3 µM)	0.0627

Okay, now this compound:
Quick note, Bliss excess for COc1nnc2ccc(N3CCC(c4ccc(OCCN5CCN(C)C(=O)[C@H]5C)cc4)CC3)nn12 [AZD5153] + CCN(CCO)CCCOc1ccc2c(Nc3cc(CC(=O)Nc4cccc(F)c4)[nH]n3)ncnc2c1 [AZD2811] (first compound max 1 µM, 7x7, partner max 1 µM) landed at -0.0781

---

- System: ESS-1 (Other Solid Carcinomas)
- TEST: Bliss excess, mean over the matrix (fraction); higher = more synergy
EXPERIMENTAL READOUT: Bliss excess
Give bare numbers.

Answered examples (2):
COMPOUND	NUMERIC RESULT
Cc1c2c(nn1C)CSCc1cc(n(C)n1)CSc1cc(c3ccccc3c1)OCCCc1c(C(=O)O)n(C)c3c-2c(Cl)ccc13 [AZD5991] + C[C@@H](Nc1cc(F)cc(F)c1)c1cc(C(=O)N(C)C)cc2c(=O)cc(N3CCOCC3)oc12 [AZD8186] (first compound max 1 µM, 7x7, partner max 3 µM)	-0.045
Cc1c2c(nn1C)CSCc1cc(n(C)n1)CSc1cc(c3ccccc3c1)OCCCc1c(C(=O)O)n(C)c3c-2c(Cl)ccc13 [AZD5991] + CC1(C)CCC(CN2CCN(c3ccc(C(=O)NS(=O)(=O)c4ccc(NCC5CCOCC5)c([N+](=O)[O-])c4)c(Oc4cnc5[nH]ccc5c4)c3)CC2)=C(c2ccc(Cl)cc2)C1 [Venetoclax] (first compound max 1 µM, 7x7, partner max 1 µM)	-0.0082

Now, please, on to the next compound.
Entry O=C(c1cc(Cc2n[nH]c(=O)c3ccccc23)ccc1F)N1CCN(C(=O)C2CC2)CC1 [Olaparib] + Cc1c2c(nn1C)CSCc1cc(n(C)n1)CSc1cc(c3ccccc3c1)OCCCc1c(C(=O)O)n(C)c3c-2c(Cl)ccc13 [AZD5991] (first compound max 10 µM, 7x7, partner max 1 µM) , ESS-1 (Other Solid Carcinomas) data, Bliss excess value: -0.0255

---

Provide the reported combination Emax of each item.
- Test system: SW1573 (Lung Adenocarcinoma)
- TEST: combination Emax (second highest fraction inhibited in the dose matrix, 72 h); higher = more inhibition; extreme values may be limits of the assay

MOLECULE	combination Emax
CS(=O)(=O)CCNCc1ccc(-c2ccc3ncnc(Nc4ccc(OCc5cccc(F)c5)c(Cl)c4)c3c2)o1 [Lapatinib] + C[C@@H](Oc1cc(-c2cnn(C3CCNCC3)c2)cnc1N)c1c(Cl)ccc(F)c1Cl [Crizotinib] (first compound max 10 µM, 7x7, partner max 10 µM)	0.462

Kindly note the recorded combination Emax for Cc1c2c(nn1C)CSCc1cc(n(C)n1)CSc1cc(c3ccccc3c1)OCCCc1c(C(=O)O)n(C)c3c-2c(Cl)ccc13 [AZD5991] + CN(C)CCCOc1ccc(-c2ccc3ncc4c(c3c2)n(C2CCOCC2)c(=O)n4C)cn1 [AZD0156] (first compound max 1 µM, 7x7, partner max 1 µM) , which is 0.214
